# target: Sterol 14-alpha demethylase (Trypanosoma cruzi (strain CL Brener), UniProt Q7Z1V1)
# Sequence (Q7Z1V1 whole entry): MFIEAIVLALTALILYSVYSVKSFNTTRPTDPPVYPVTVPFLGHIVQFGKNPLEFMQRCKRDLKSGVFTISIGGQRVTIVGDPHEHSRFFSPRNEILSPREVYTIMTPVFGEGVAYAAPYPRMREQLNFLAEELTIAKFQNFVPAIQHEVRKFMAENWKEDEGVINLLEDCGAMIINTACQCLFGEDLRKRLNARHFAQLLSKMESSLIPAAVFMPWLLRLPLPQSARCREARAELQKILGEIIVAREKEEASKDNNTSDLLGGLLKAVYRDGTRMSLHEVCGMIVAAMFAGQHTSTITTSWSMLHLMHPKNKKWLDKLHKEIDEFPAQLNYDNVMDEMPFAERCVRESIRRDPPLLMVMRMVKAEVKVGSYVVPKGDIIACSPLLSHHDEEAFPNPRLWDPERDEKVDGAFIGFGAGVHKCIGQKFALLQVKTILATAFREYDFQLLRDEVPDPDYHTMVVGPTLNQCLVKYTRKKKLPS
# experimental_protocol: GSK_TCAKS: pIC50 CYP51 from Trypanosoma cruzi.
Give measured pIC50 for each item. Keep answers brief.
Hey, just a heads up that pIC50 is the negative log base 10 of the concentration in molar.

Ask: Recall the reported pIC50 of COc1ccc(C2CC(c3ccccc3Cl)=NN2C(=O)CNC(=O)C2CCCC2)cc1 (centres undefined) on Sterol 14-alpha demethylase (Trypanosoma cruzi (strain CL Brener), UniProt Q7Z1V1) and write it down.
Reply: 4.20

Ask: Recall the reported pIC50 of COc1cnc2ccc(=O)n(CCN3CCC(NC(=O)c4ccc(Cl)cc4)CC3)c2c1 on Sterol 14-alpha demethylase (Trypanosoma cruzi (strain CL Brener), UniProt Q7Z1V1) and write it down.
Reply: 5.00

Ask: Recall the reported pIC50 of O=C(Cc1ccc2c(c1)CCC2)Nc1nnc(-c2ccccn2)[nH]1 on Sterol 14-alpha demethylase (Trypanosoma cruzi (strain CL Brener), UniProt Q7Z1V1) and write it down.
Reply: 5.60

Ask: Recall the reported pIC50 of O=C(NCCc1ccn(-c2ccccc2)n1)C1CCCCC1 on Sterol 14-alpha demethylase (Trypanosoma cruzi (strain CL Brener), UniProt Q7Z1V1) and write it down.
Reply: 4.00

Ask: Recall the reported pIC50 of Cc1cc2cc(CNc3ccc4c(c3)OCO4)c(=O)n(CCO)c2cc1C on Sterol 14-alpha demethylase (Trypanosoma cruzi (strain CL Brener), UniProt Q7Z1V1) and write it down.
Reply: 5.00

Ask: Recall the reported pIC50 of Cc1nc(-c2ccc3c(c2)OCO3)sc1C(=O)NCc1ccc2c(c1)OCO2 on Sterol 14-alpha demethylase (Trypanosoma cruzi (strain CL Brener), UniProt Q7Z1V1) and write it down.
Reply: 5.30

Ask: Recall the reported pIC50 of c1cncc(CN(Cc2ccco2)Cc2c[nH]nc2-c2cccs2)c1 on Sterol 14-alpha demethylase (Trypanosoma cruzi (strain CL Brener), UniProt Q7Z1V1) and write it down.
Reply: 7.10

Ask: Recall the reported pIC50 of Cc1nn2c(NCCCO)c3c(nc2c1-c1cccs1)CCC3 on Sterol 14-alpha demethylase (Trypanosoma cruzi (strain CL Brener), UniProt Q7Z1V1) and write it down.
Reply: 4.60

Ask: Recall the reported pIC50 of O=C1CSC(c2cccnc2)N1c1ccc(Cl)cc1Cl (centres undefined) on Sterol 14-alpha demethylase (Trypanosoma cruzi (strain CL Brener), UniProt Q7Z1V1) and write it down.
Reply: 6.80

Ask: Recall the reported pIC50 of O=C(Cc1ccccc1)Nc1n[nH]c2sc(C(=O)NC3CCCC3)cc12 on Sterol 14-alpha demethylase (Trypanosoma cruzi (strain CL Brener), UniProt Q7Z1V1) and write it down.
Reply: 4.50

Ask: Recall the reported pIC50 of CN(C)c1ncc(-c2cncn2CCOc2ccc(Cl)cc2)cn1 on Sterol 14-alpha demethylase (Trypanosoma cruzi (strain CL Brener), UniProt Q7Z1V1) and write it down.
Reply: 7.30

Ask: Recall the reported pIC50 of COc1ccc2ncc(Cl)c(CCN3CC[C@H](NCc4cc5c(cn4)OCS5)[C@@H](O)C3)c2n1 on Sterol 14-alpha demethylase (Trypanosoma cruzi (strain CL Brener), UniProt Q7Z1V1) and write it down.
Reply: 5.10

Ask: Recall the reported pIC50 of COc1ccc(NS(=O)(=O)c2cc(-c3cc(C)n[nH]3)ccc2C)cc1OC on Sterol 14-alpha demethylase (Trypanosoma cruzi (strain CL Brener), UniProt Q7Z1V1) and write it down.
Reply: 4.40

Ask: Recall the reported pIC50 of N#Cc1cccc(CNc2ccc(-c3cnn(CC4CC4)c(=O)c3C#N)cc2)c1 on Sterol 14-alpha demethylase (Trypanosoma cruzi (strain CL Brener), UniProt Q7Z1V1) and write it down.
Reply: 5.20

Ask: Recall the reported pIC50 of Cc1ccccc1CNc1cc(C2CC2)nc(-c2nccn2C)n1 on Sterol 14-alpha demethylase (Trypanosoma cruzi (strain CL Brener), UniProt Q7Z1V1) and write it down.
Reply: 4.80

Ask: Recall the reported pIC50 of O=C(c1cccc(Cl)c1Cl)N1CCn2c1nc(-c1ccncc1)cc2=O on Sterol 14-alpha demethylase (Trypanosoma cruzi (strain CL Brener), UniProt Q7Z1V1) and write it down.
Reply: 7.20

Ask: Recall the reported pIC50 of O=C(Nc1ccc(C(F)(F)F)cc1)Nc1cccc([N+](=O)[O-])c1 on Sterol 14-alpha demethylase (Trypanosoma cruzi (strain CL Brener), UniProt Q7Z1V1) and write it down.
Reply: 5.20

Ask: Recall the reported pIC50 of O=S(=O)(c1ccccc1C(F)(F)F)N1CCN(Cc2ccc(-n3ccnc3)cc2)CC1 on Sterol 14-alpha demethylase (Trypanosoma cruzi (strain CL Brener), UniProt Q7Z1V1) and write it down.
Reply: 7.00

Ask: Recall the reported pIC50 of COc1ccc(Nc2nc(-c3ccccn3)cc(N3CCCC(O)C3)n2)cc1 (centres undefined) on Sterol 14-alpha demethylase (Trypanosoma cruzi (strain CL Brener), UniProt Q7Z1V1) and write it down.
Reply: 4.30

Ask: Recall the reported pIC50 of CN(C)Cc1ccc(-c2ccc(S(=O)(=O)NCC3CCCO3)c(F)c2)cc1 (centres undefined) on Sterol 14-alpha demethylase (Trypanosoma cruzi (strain CL Brener), UniProt Q7Z1V1) and write it down.
Reply: 4.40

Ask: Recall the reported pIC50 of O=C(CSc1ccc(F)cc1)N[C@@H](Cc1c[nH]cn1)C(=O)NCCc1ccccc1 on Sterol 14-alpha demethylase (Trypanosoma cruzi (strain CL Brener), UniProt Q7Z1V1) and write it down.
Reply: 7.10

Ask: Recall the reported pIC50 of CCC1Oc2cc(S(=O)(=O)N(C)CC(=O)N3CCc4ccccc4C3)c(C)cc2NC1=O (centres undefined) on Sterol 14-alpha demethylase (Trypanosoma cruzi (strain CL Brener), UniProt Q7Z1V1) and write it down.
Reply: 6.10

Ask: Recall the reported pIC50 of COc1ccc(C(=O)NC2CCN(CCn3c(=O)ccc4ncc(F)cc43)CC2)cc1Cl on Sterol 14-alpha demethylase (Trypanosoma cruzi (strain CL Brener), UniProt Q7Z1V1) and write it down.
Reply: 4.80

Ask: Recall the reported pIC50 of CCCCn1c(=O)c2c(N)onc2n(CCCC)c1=O on Sterol 14-alpha demethylase (Trypanosoma cruzi (strain CL Brener), UniProt Q7Z1V1) and write it down.
Reply: 4.10

Ask: Recall the reported pIC50 of Cc1[nH]nc(Nc2ccnc3[nH]ccc23)c1C on Sterol 14-alpha demethylase (Trypanosoma cruzi (strain CL Brener), UniProt Q7Z1V1) and write it down.
Reply: 4.10

Ask: Recall the reported pIC50 of CNc1cncc(C2CCCN2C(=O)Cc2coc3cc(C)ccc23)n1 (centres undefined) on Sterol 14-alpha demethylase (Trypanosoma cruzi (strain CL Brener), UniProt Q7Z1V1) and write it down.
Reply: 7.60
